System: cancer stem cells
Test: Survival rate of cancer stem cells after test compound is added (flow cytometry, Annexin V-FITC/PI, clinical specimen)
Assay type: cell-based, patient
Conditions: Homo sapiens, 18 h, Colon adenocarcinoma; 10.0 μM
Define the label as yes (1) when viability at 10 µM is strictly less than 80% and as no (0) in all remaining cases.

Worked cases, answers included:
C=C1C(=O)O[C@@H]2[C@@H]3[C@@H](CC[C@@]3(C)O)[C@](C)(O)CC[C@@H]12 [Compound 49]; no (0)
C=C1C(=O)O[C@H]2[C@H]1CC[C@]1(C)O[C@@]13CC[C@@](C)(O)[C@H]23 [Compound 24]; yes (1)

Check if viability at 10 µM falls below 80% for C=C1C(=O)O[C@H]2[C@H]1CC[C@@](C)(OC)C1CC[C@@](C)(O)[C@@H]12 (stereo partly drawn) [Compound 47] . no (0)

Check if viability at 10 µM falls below 80% for CN(C)C[C@@H]1C(=O)O[C@H]2[C@H]1CCC1(CC1)[C@@H]1CCC3(CC3)[C@H]21 [Compound 35] . no (0)

Check if viability at 10 µM falls below 80% for [2H][C@@]1(CN(C)C)C(=O)O[C@@H]2[C@@H]3[C@@H](CCC34CC4)C3(CC[C@H]21)CC3 [Compound 46] . no (0)
